All values here come from ChEMBL document CHEMBL1201862.

tested on: HCT-116; assay: NCI tumour cell line growth inhibition, 48 h
Calls of active or inactive are those of the source. Rule as the data show it: active = GI50 up to about 1.1 µM and inactive = higher.
assay readout: GI50

Test system HCT-116; read-out GI50; what value for CC1CC[C@]2(C(=O)O)CCC3(C)C(=CCC4[C@@]5(C)CC[C@H](OS(=O)(=O)c6ccccc6)C(C)(C)C5CC[C@]43C)[C@@H]2[C@H]1C (some centres undefined) ?
27.2 µM (inactive)

// query: CCc1n[nH]c(=O)n1N1C(=O)C2CC=CCC2C1=O (centres undefined)
> 100 µM (inactive)

// query: O=c1[nH]c(=O)n(C2OC(CO)C(O)C2O)c2nc(-c3ccc(-c4ccccc4)cc3)cnc12 (centres undefined)
> 100 µM (inactive)

// query: Cc1cccc(N2C(=O)C3c4[nH]c5ccccc5c4C4CCC(C(C)(C)C)CC4C3C2=O)c1 (centres undefined)
9.29 µM (inactive)

* * *

test system: TK-10; experiment: NCI tumour cell line growth inhibition, 48 h
Active and inactive are the calls of the source. Cut-off read from the data, not from the text of the source: active = GI50 up to about 1.1 µM and inactive = higher. Non-standard residues stand in square brackets, D forms with d. Residues, ends and D or L forms follow the SMILES beside them. ξ: configuration not given here. *: point of attachment. ξF = NC(Cc1ccccc1)C(=O)O; Cbz = O=C(OCc1ccccc1)*; Aib = CC(C)(N)C(=O)O
Write down one outcome, taken from YES (active), NO (inactive)

Recorded call for O=c1[nH]c(=S)[nH]c2c(C3OC(CO)C(O)C3O)nsc12 (stereo not given) ?
NO

// query: CN1CCN(c2c(Cl)cc(Cl)c3[nH]c4ccccc4c(=O)c23)CC1
NO

// query: O=C(Nc1nnc(S)[nH]1)C(=O)C(c1cnc2ccc([N+](=O)[O-])cc2n1)[N+](=O)[O-] (stereo not given)
NO

// query: CCOC(=O)CNC(=O)C(Cc1ccccc1)NC(=O)C(C)(C)NC(=O)OCc1ccccc1 (stereo not given) (Cbz-[Aib]-[ξF]-Gly-OEt)
NO

// query: N#CC12CC=C(c3ccccc3)N=C1NC(c1ccccc1)=CC2 (stereo not given)
NO

// query: O=C(NCCc1ccccc1)c1c(O)nc2ccccc2c1O
NO

// query: Oc1cc(-c2cccc(OC(F)(F)F)c2)nc2ccc(N3CCCC3)cc12
YES

// query: Cc1ccc(S(=O)(=O)Nn2c(O)c(C#N)c(-c3ccc(N(C)C)cc3)c(C#N)c2=O)cc1
NO

// query: O=C1CCCC1CN1CCCC1 (stereo not given)
NO

// query: c1ccc2c(c1)C(=Nc1ccc(N=C3c4ccccc4-c4ccccc43)cc1)c1ccccc1-2
NO

* * *

tested on: ACHN; test: NCI tumour cell line growth inhibition, 48 h
Activity calls are given as the source filed them. No stated cut-off is given here; in the data, active = GI50 up to about 1.1 µM and inactive = higher.
assay readout: GI50

Test system ACHN; read-out GI50; what value for c1ccc2c3nc(C4CCCC4)nc-3c(NC3CCCC3)[nH]c2c1 ?
25.7 µM (inactive)

// query: CCCC/C=C/C=C/C=C/CCCCCCCC(=O)OCC(COC(=O)CCCCCCC/C=C/C1C=CC(CCCC)C(C(=O)O)C1C(=O)O)OC(=O)CCCCCCC/C=C/C=C/C=C/CCCC.OCCNCO (stereo not drawn)
19 µM (inactive)

// query: NCCCC[C@H](N)C(=O)Nc1ccc(-c2nc3ccccc3s2)cc1
20.3 µM (inactive)

// query: O=[N+]([O-])c1ccc2nc(/C(=N/Nc3ccccc3)C(O)c3ccc(C(O)/C(=N\Nc4ccccc4)c4nc5ccc([N+](=O)[O-])cc5nc4O)cc3)cnc2c1 (stereo not drawn)
18 µM (inactive)

// query: C=CCSC1=N/C(=C\c2ccccc2)C(=O)N1CC=C
41.8 µM (inactive)

// query: CC(=O)OCC1OC(OC2CC3C(C)(C)C(OC(C)=O)CC[C@]3(C)C3CCC45CC4(CC[C@H]5C(C)CC(O)[C@@H](O)C(C)(C)O)[C@]23C)C(O)C(O)C1O (stereo partly drawn)
7.98 µM (inactive)

// query: NC(=O)C1CCCN1C(=O)N(CCCl)N=O (stereo not drawn)
> 100 µM (inactive)

// query: COc1c(-c2nc3ccc(N4CCN(C)CC4)nc3[nH]2)cc(OC)c2c1nc(COC(C)=O)n2C
> 100 µM (inactive)

* * *

system: CAKI-1; assay: NCI tumour cell line growth inhibition, 48 h
Active and inactive are the calls of the source. Cut-off read from the data, not from the text of the source: active = GI50 up to about 1.1 µM and inactive = higher.
Write down one outcome, taken from active, inactive

Recorded call for CC(OCc1ccccc1)C(NC(=O)C1CSSCC(NC(=O)C(Cc2ccccc2)NC(=O)OCc2ccccc2)C(=O)NC(Cc2ccccc2)C(=O)NC(Cc2cn(C=O)c3ccccc23)C(=O)NC(CCCCNC(=O)OCc2ccccc2)C(=O)NC(C(C)OCc2ccccc2)C(=O)N1)C(N)=O (centres undefined) ?
inactive

// query: O=[N+]([O-])c1ccc(N2C[N+](c3ccccc3)=NC(c3ccccc3)=N2)cc1
inactive

// query: N#Cc1c(C[n+]2ccccc2)c2ccccc2oc1=O
inactive

// query: Clc1ccc2[nH]c(CC3CCCC3)nc2c1
inactive

// query: CCn1cc(C(=O)O)c(=O)c2ccc(C)nc21
inactive

// query: Nc1ccn(C2CCC(COP(=O)(O)OCC(O)COP(=O)(O)OCC3OC(n4cc(F)c(=O)[nH]c4=O)CC3O)O2)c(=O)n1 (centres undefined)
active

// query: O=C(NNC(=S)Nc1ccccc1)c1cc(-c2ccccc2)nc2ccccc12
inactive

// query: NNC(=O)CCC(=O)NC1C2CC3CC(C2)CC1C3 (centres undefined)
inactive

// query: COc1ccc(/C=C\c2cc(OC)c(OC)c(OC)c2)cc1
active

// query: CS(=O)(=O)N(CCC#N)c1ccc(/C=C2\N=C(c3ccccc3Cl)OC2=O)cc1
inactive

// query: O=c1c2cc(Cl)ccc2n2nnc3ccc(NCCNCCO)c1c32
inactive

// query: CCOC(=O)c1cn(-c2ccc(Cl)cc2)c(=O)n2c1nc1ccccc12
inactive

// query: O=C(NNC(=O)c1ccccc1O)c1ccco1
inactive

// query: CC1=C(/C=C/C(C)=C/C=C/C(C)=C/C=C/C=C(C)/C=C/C=C(C)/C=C/C2=C(C)C(=O)C(O)CC2(C)C)C(C)(C)CC(O)C1=O (centres undefined)
inactive

// query: CCC(=O)Nc1nc2c(ncn2C2OC(COC(=O)CC)C(OC(=O)CC)C2OC(=O)CC)c(=O)[nH]1 (centres undefined)
inactive

// query: c1cc(-c2cn[nH]c2)cc(-c2cn[nH]c2)c1
inactive

// query: COC(CNC(=O)C(C)NC(=O)CCc1ccccc1)OC (centres undefined)
inactive

// query: Cc1c(C(=O)/C=C/c2ccc(Cl)cc2)[n+]([O-])c2ccccc2[n+]1[O-]
inactive

// query: Cc1cccc2c(N)c3cccc(C(=O)NCCCNCCN)c3nc12
inactive

* * *

system: SF-539; experiment: NCI tumour cell line growth inhibition, 48 h
Active and inactive are the calls of the source. No stated cut-off is given here; in the data, active = GI50 up to about 1.1 µM and inactive = higher.
Answer each item with its documented GI50.

I would be grateful if you could share the reported GI50 for CN(C)CCC(/C=C/c1ccccc1)=N\Nc1ccc(Cl)cc1Cl .
15.2 µM (inactive)

// query: Ic1ccc2c(c1)N(c1ccccc1)c1cc([N-]c3ccc4nc5ccc(I)cc5[n+](-c5ccccc5)c4c3)ccc1N2
> 100 µM (inactive)

// query: COc1cc2oc(-c3ccc(O)cc3)cc(=O)c2c(OC)c1O
> 100 µM (inactive)

// query: O=c1oc2ccccc2cc1-c1nc2ccc([N+](=O)[O-])cc2o1
65.2 µM (inactive)

// query: CCCCSC1=N/C(=C\c2ccccc2O)C(=O)N1
41.5 µM (inactive)

// query: O=c1c2cc3ccccc3n2c(=O)c2cc3ccccc3n12
> 100 µM (inactive)

// query: O=C(O)c1cccc(S(=O)(=O)NN2C(=O)CSC2c2ccccc2Cl)c1 (stereo not given)
> 100 µM (inactive)

// query: COC1=CC(=O)c2c(c(O)c3oc4cc(OC)cc(C)c4c(=O)c3c2O)C1=O
1.32 µM (inactive)

// query: COc1ccc(CC(C)N)cc1 (stereo not given)
> 100 µM (inactive)

// query: CC(=O)CCC(=O)C(=[N+]=[N-])S(=O)(=O)c1ccccc1
> 100 µM (inactive)

* * *

test system: UO-31; assay: NCI tumour cell line growth inhibition, 48 h
Activity calls are given as the source filed them. Rule as the data show it: active = GI50 up to about 1.1 µM and inactive = higher. Where a SMILES comes first, the peptide text is derived from it. The star is where a group is joined. Boc = CC(C)(C)OC(=O)*
Write down one outcome, taken from TRUE for active, FALSE for inactive

Recorded call for O=C1CSC2=NCC3(NN12)c1ccccc1-c1ccccc13 ?
FALSE

// query: O=C(Cc1ccc([N+](=O)[O-])cc1)OCC#CCOC(=O)Cc1ccc([N+](=O)[O-])cc1
FALSE

// query: Clc1ccc(Nc2ncco2)cc1Cl
FALSE

// query: O=C(CCCl)NN=C1NCCCCN1
FALSE

// query: COc1ccc(CCNC(=S)NC=C2C(=O)c3ccccc3C2=O)cc1OC
FALSE

// query: C[C@@]12C[C@@H](c3ccccc3O1)N1CCCSC1=N2
FALSE

// query: CN(C)c1n/c(=N/Cc2ccco2)ss1
FALSE

// query: CC(C)(C)OC(=O)NCC(=O)NCC(=O)NCC(=O)NCC(=O)O (Boc-GGGG-OH)
FALSE

// query: O=C1NC(c2ccccc2Cl)Nc2ccccc21 (stereo unspecified)
FALSE

// query: C=CCCCC12CCCc3cccc(c31)NC2=O (stereo unspecified)
FALSE

// query: Nc1ccn(C2CCC(COP(=O)(O)OCC(O)COP(=O)(O)OCC3OC(n4cc(F)c(=O)[nH]c4=O)CC3O)O2)c(=O)n1 (stereo unspecified)
TRUE
